The molecules listed here are annotated with their Threshold of tumor cell numbers for HPV-16 detection.
Test system: HPV-16
test_name: qPCR sensitivity against HPV-HNSCC tumor samples diluted among 10 ng normal human DNA
test_conditions: Sample # 15
test_readout: Threshold of tumor cell numbers for HPV-16 detection

molecule | result
BR E1-4: HPV-16 E1 region primer/probe set, SEQ ID NO: 37-39 (nucleic acid, chemistry not given here) DNA 1: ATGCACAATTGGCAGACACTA DNA 2: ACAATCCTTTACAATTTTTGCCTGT DNA 3: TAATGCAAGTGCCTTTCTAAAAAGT | 6.0 tumor cells
BR E1-5: HPV-16 E1 region primer/probe set, SEQ ID NO: 40-42 (same as SEQ ID NO: 1-3) (nucleic acid, chemistry not given here) DNA 1: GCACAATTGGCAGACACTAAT DNA 2: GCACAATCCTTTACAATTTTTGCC DNA 3: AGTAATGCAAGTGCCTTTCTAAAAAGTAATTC | 6.0 tumor cells
